pIC50: −log10 of the molar value.
measurement_label: pIC50

Test item C=CC(=O)Nc1cccc(Nc2cc(Oc3cccc(C(F)(F)F)c3)ncn2)c1 ; JAK3 (Homo sapiens, UniProt P52333); reported pIC50 was 6.00 to 7.00

Test item COc1ccc(NC(=O)/C=C/CN(C)C)cc1Nc1cc(Nc2ccc(F)c(Cl)c2)ncn1 ; JAK3 (Homo sapiens, UniProt P52333); reported pIC50 was 5.00 to 6.00

Test item C=CC(=O)Nc1cccc(Nc2cc(Nc3ccc(Oc4ccccc4)cc3)ncn2)c1 ; JAK3 (Homo sapiens, UniProt P52333); reported pIC50 was 6.00 to 7.00

Test item O=C(CCl)Nc1cccc(Nc2cc(Nc3ccc(F)c(Cl)c3)ncn2)c1 ; JAK3 (Homo sapiens, UniProt P52333); reported pIC50 was ≥ 8.00

Test item CN(C)C/C=C/C(=O)Nc1cccc(Nc2cc(Nc3ccc(OCc4ccccn4)c(Cl)c3)ncn2)c1 ; JAK3 (Homo sapiens, UniProt P52333); reported pIC50 was 6.00 to 7.00

Test item CC(Cl)C(=O)Nc1cccc(Nc2cc(Nc3ccc(F)c(Cl)c3)ncn2)c1 (stereo not drawn) ; JAK3 (Homo sapiens, UniProt P52333); reported pIC50 was 6.00 to 7.00

Test item C=CC(=O)Nc1cccc(Nc2cc(Nc3ccc(Br)cc3F)ncn2)c1 ; JAK3 (Homo sapiens, UniProt P52333); reported pIC50 was 7.00 to 8.00

Test item C=CC(=O)Nc1cccc(Nc2cc(N(C)c3ccccc3)ncn2)c1 ; JAK3 (Homo sapiens, UniProt P52333); reported pIC50 was 7.00 to 8.00

Test item C=CC(=O)Nc1cccc(Nc2cc(Nc3ccc(F)c(Cl)c3)ncn2)c1 ; JAK3 (Homo sapiens, UniProt P52333); reported pIC50 was ≥ 8.00

###

target: EGFR (T790M/L858R) (Homo sapiens, UniProt P00533, L858R/T790M); test: Omnia continuous-read kinase assay, EGFR (T790M/L858R); details: read-out: EGFR (T790M/L858R) inhibiton
Sequence (P00533 25-1210 T790M/L858R): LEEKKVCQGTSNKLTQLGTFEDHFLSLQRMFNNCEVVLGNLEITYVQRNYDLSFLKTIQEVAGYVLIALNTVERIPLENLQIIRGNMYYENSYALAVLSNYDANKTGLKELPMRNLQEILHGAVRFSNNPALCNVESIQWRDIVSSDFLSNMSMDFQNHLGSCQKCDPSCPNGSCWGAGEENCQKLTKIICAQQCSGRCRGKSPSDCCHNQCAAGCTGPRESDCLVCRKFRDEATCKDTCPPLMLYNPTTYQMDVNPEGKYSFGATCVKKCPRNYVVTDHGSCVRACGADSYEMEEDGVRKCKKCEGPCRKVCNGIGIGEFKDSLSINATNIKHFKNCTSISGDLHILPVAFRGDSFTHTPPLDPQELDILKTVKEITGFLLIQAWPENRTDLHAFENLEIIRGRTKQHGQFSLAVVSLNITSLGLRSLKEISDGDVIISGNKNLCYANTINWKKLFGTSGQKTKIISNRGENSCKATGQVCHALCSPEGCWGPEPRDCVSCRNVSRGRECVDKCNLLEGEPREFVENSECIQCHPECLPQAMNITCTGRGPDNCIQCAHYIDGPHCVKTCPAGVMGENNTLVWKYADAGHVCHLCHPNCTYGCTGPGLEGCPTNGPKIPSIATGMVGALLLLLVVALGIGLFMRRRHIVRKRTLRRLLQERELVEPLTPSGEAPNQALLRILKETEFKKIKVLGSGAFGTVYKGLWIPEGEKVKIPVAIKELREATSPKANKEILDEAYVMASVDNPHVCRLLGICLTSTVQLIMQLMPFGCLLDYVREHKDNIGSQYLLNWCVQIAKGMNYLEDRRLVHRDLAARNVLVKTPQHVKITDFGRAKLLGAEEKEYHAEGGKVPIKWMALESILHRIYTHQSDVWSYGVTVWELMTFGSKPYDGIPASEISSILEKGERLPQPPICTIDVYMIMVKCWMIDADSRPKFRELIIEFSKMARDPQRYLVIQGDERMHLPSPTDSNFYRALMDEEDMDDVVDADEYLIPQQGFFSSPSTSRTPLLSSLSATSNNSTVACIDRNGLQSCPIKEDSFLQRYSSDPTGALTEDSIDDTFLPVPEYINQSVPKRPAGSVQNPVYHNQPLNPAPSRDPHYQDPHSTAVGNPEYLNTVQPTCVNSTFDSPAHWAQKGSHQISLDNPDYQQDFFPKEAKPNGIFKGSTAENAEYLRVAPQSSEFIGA
pIC50: −log10 of the molar value.
Can you tell me pIC50 for the items I'm about to list?

Noted for C=CC(=O)Nc1cccc(Nc2cc(N3CCc4ccccc43)ncn2)c1 : its pIC50 reads 7.00 to 8.00

Noted for C=CS(=O)(=O)Nc1cccc(Nc2cc(Nc3cccc(C)c3)ncn2)c1 : its pIC50 reads ≥ 8.00

Noted for CC(Cl)C(=O)Nc1cccc(Nc2cc(Nc3ccc(F)c(Cl)c3)ncn2)c1 (centres unmarked) : its pIC50 reads 7.00 to 8.00

Noted for C=CC(=O)Nc1cccc(Nc2cc(Nc3ccccc3)ncn2)c1 : its pIC50 reads ≥ 8.00

Noted for C=CC(=O)Nc1cccc(Nc2cc(Nc3ccc(F)c(Cl)c3)ncn2)c1 : its pIC50 reads ≥ 8.00

###

biological target: ErbB4 (Homo sapiens); assay: Z'-LYTE biochemical assay, ErbB4 kinase inhibition; settings: @ 1 μM
Sequence (Q15303 26-1308): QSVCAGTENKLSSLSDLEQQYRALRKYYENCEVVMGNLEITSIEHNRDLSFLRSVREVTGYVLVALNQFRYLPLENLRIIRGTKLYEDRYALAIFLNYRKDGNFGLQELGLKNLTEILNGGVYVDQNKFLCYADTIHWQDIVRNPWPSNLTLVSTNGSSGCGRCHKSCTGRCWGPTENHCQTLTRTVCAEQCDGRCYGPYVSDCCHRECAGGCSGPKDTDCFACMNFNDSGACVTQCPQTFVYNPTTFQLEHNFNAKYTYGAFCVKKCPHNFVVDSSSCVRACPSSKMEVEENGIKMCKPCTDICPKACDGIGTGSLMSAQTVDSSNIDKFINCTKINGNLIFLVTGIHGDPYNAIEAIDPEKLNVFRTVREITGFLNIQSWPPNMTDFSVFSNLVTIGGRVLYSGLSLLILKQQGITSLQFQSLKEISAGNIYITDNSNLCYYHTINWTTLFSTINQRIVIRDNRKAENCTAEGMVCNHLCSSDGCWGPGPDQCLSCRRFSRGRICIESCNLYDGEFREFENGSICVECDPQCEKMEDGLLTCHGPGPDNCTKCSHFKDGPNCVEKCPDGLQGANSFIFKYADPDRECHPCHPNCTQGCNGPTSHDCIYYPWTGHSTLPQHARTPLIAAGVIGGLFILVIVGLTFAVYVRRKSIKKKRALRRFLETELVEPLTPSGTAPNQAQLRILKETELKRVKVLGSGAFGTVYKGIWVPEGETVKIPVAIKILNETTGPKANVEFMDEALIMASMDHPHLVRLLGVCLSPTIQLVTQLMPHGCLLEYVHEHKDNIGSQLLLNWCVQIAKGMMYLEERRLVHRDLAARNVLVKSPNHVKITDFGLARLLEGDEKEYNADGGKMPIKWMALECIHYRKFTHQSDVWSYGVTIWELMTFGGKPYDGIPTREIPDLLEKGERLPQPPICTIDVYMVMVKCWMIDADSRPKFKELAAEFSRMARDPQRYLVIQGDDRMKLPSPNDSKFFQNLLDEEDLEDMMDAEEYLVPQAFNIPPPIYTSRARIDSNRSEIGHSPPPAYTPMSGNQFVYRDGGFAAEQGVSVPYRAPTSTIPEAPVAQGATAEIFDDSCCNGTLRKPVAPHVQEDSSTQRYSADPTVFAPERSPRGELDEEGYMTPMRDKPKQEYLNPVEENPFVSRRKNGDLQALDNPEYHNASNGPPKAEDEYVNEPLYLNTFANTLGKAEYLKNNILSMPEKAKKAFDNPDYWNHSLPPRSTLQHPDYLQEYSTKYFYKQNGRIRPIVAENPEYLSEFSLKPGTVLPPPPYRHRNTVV
Can you tell me inhibition at 1 µM for the items I'm about to list?
Number first, unit second.

Noted for CN(C)C/C=C/C(=O)Nc1cccc(Nc2cc(Nc3ccc(OCc4ccccn4)c(Cl)c3)ncn2)c1 : its inhibition at 1 µM reads 97%

Noted for C/C=C/C(=O)Nc1cccc(Nc2cc(Nc3cccc(Br)c3)ncn2)c1 : its inhibition at 1 µM reads 57%

Noted for C=CC(=O)Nc1cccc(Nc2cc(Nc3ccc(F)c(Cl)c3)ncn2)c1 : its inhibition at 1 µM reads 75%

Noted for CN(C)C/C=C/C(=O)Nc1cccc(Nc2cc(Nc3ccc(F)c(Cl)c3)ncn2)c1 : its inhibition at 1 µM reads 94%

Noted for C=CC(=O)Nc1cccc(Nc2cc(Nc3cccc(Br)c3)ncn2)c1 : its inhibition at 1 µM reads 86%

Noted for C=CC(=O)Nc1cccc(Nc2cc(Nc3cccc(C)c3)ncn2)c1 : its inhibition at 1 µM reads 78%

Noted for C=CS(=O)(=O)Nc1cccc(Nc2cc(Nc3ccc(OCc4cccc(F)c4)c(Cl)c3)ncn2)c1 : its inhibition at 1 µM reads 100%

Noted for C=CS(=O)(=O)Nc1cccc(Nc2cc(Nc3ccc(F)c(Cl)c3)ncn2)c1 : its inhibition at 1 µM reads 95%

Noted for C=CC(=O)Nc1cccc(Nc2cc(Nc3ccc(OCc4cccc(F)c4)c(Cl)c3)ncn2)c1 : its inhibition at 1 µM reads 97%

Noted for C=CS(=O)(=O)Nc1cccc(Nc2cc(Nc3cccc(C)c3)ncn2)c1 : its inhibition at 1 µM reads 95%

Noted for Cc1cccc(Nc2cc(Nc3cccc(NC(=O)/C=C/CN(C)C)c3)ncn2)c1 : its inhibition at 1 µM reads 94%

Noted for C=CC(=O)Nc1cccc(Nc2cc(Oc3cccc(C(F)(F)F)c3)ncn2)c1 : its inhibition at 1 µM reads 75%
